Below, each entry is listed with its recorded log2 fold change of degron read counts.
- tested.on: T1, CRBN, Q96SW2
- T1 chain: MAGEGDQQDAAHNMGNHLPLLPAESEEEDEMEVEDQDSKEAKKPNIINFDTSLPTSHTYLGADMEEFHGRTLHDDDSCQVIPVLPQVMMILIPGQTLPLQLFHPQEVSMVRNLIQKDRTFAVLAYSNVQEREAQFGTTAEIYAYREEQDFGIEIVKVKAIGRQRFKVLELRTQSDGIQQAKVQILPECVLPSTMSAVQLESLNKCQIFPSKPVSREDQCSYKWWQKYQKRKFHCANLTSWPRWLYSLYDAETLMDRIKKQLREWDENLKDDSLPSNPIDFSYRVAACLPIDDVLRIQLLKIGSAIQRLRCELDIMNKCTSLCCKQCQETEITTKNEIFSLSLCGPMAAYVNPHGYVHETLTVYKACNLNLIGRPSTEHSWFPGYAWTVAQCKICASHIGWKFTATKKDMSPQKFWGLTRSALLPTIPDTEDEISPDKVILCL
- assay.remarks: log2 fold change of degron read counts, EGFP-low vs EGFP+ sorted cells (limma voom), compound-induced degradation; higher = more compound-induced degradation of the degron-EGFP fusion; degrons are variants of IKZF1/3 zinc finger 2; compound dose not given here;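 note: pooled lentiviral library of zinc finger degron-EGFP fusions in mCherry-positive Jurkat cells, FACS-sorted after compound exposure, with degron abundance counted by next-generation sequencing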
- experimental.context: Jurkat; 18 h; compound: thalidomide
In all, about 8,300 sequences were measured (“log2 fold change of degron read counts, EGFP-low vs EGFP+ sorted cells (limma voom), compound-induced degradation”: median about -1.1, highest 2% from about 3.2 on). The entries come from a sample that favours the highest values as a whole.
measurement.kind: log2 fold change of degron read counts

[
  {
    "macromolecule.sequence": "LFCEICGFVCTQKGNLLRHIKL [46L_47F_49E_50I_52G_53F_54V_55C_67L_, Q9UKT9]",
    "observed.result": 1.31
  },
  {
    "macromolecule.sequence": "LWCEICGFVCTQKGNLLRHIKL [46L_47W_49E_50I_52G_53F_54V_55C_67L_, Q9UKT9]",
    "observed.result": 0.659
  },
  {
    "macromolecule.sequence": "FNCNQCGHKFTQKGNLLRHIKL [46F_47N_49N_50Q_52G_53H_54K_55F_67L_, Q9UKT9]",
    "observed.result": -2.32
  },
  {
    "macromolecule.sequence": "LQCEICGFVCTQKGNLLRHIKL [46L_47Q_49E_50I_52G_53F_54V_55C_67L_, Q9UKT9]",
    "observed.result": 3.4
  }
]

Reference source: the supplement of paper PMC12645437
